Molecular target: T1, human GPVI-Fc fusion protein (human, UniProt Q9HCN6 21-267, limits assumed)
T1 construct: also called human GPVI protein antigen
T1 sequence (looked up): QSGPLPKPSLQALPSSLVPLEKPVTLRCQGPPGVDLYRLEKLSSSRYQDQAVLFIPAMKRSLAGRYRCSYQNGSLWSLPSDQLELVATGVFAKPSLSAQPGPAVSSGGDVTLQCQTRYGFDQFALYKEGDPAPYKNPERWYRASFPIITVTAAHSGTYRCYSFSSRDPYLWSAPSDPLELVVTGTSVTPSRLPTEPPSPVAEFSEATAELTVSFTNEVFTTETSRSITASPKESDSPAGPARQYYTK
Assay: BLI (Octet), GPVI-Fc on biosensor, 1:1 fit
reported-property: koff (s⁻¹)

binder	reading-unit	value-reported
HC1 LC1 humanized Fab (Fab, V domains shown, Monovalent 50 kDa Fab from CHO; also called VH1:VL1) VH: QVQLQESGPGLVKPSETLSLTCTASGFSLTSYGVTWIRQPPGKGLEWIGVIWGDGSTNYHSGLRSRVTISVDTSKSQFSLKLSSVTAADTAVYYCAKPIYYDFDDDAMDYWGQGTLVTVSS VL: EIVLTQSPSSLSASVGDRVTITCKASQNVGTYVAWFQQKPGKAPKSLIYSASYRCSGVPSKFSGSGSGTDFTLTISSLQPEDFATYYCHQYNNYPLTFGQGTKLEIKR	s⁻¹	0.000332
HC5 LC4 humanized Fab (Fab, V domains shown, also called VH5:VL4) VH: QVQLQESGPGLVKPSETLSLTCTVSGFSLTSYGVTWIRQPPGKGLEWIGVIWGDGSTNYHSGLRSRVTISVDTSKNQFSLKLSSVTAADTAVYYCAKPIYYDFDDDAMDYWGQGTSVTVSS VL: DIVMTQSPATLSLSPGDRATLSCKASQNVGTYVAWYQQKPGQAPRLLIYSASYRCSGIPARFSGSGSGTDFTLTISSLQSEDFAVYYCHQYNNYPLTFGGGTKVEIKR	s⁻¹	0.000319
HC5 LC3 humanized Fab (Fab, V domains shown, also called VH5:VL3) VH: QVQLQESGPGLVKPSETLSLTCTVSGFSLTSYGVTWIRQPPGKGLEWIGVIWGDGSTNYHSGLRSRVTISVDTSKNQFSLKLSSVTAADTAVYYCAKPIYYDFDDDAMDYWGQGTSVTVSS VL: DIQLTQSPSTLSASVGDRVTITCKASQNVGTYVAWYQQKPGKAPKLLIYSASYRCSGVPSRFSGSGSGTEFTLTISSLQPDDFTTYYCHQYNNYPLTFGQGTKVEIKR	s⁻¹	0.000437
HC3 LC3 humanized Fab (Fab, V domains shown, also called VH3:VL3) VH: QVQLVESGGGVVQPGRSLRLSCVASGFSLTSYGVTWVRQAPGKGLEWVAVIWGDGSTNYHSGLRSRFTISRDNSKNTMFLQMNSLRADDTAVYYCAKPIYYDFDDDAMDYWGQGTLVTVSS VL: DIQLTQSPSTLSASVGDRVTITCKASQNVGTYVAWYQQKPGKAPKLLIYSASYRCSGVPSRFSGSGSGTEFTLTISSLQPDDFTTYYCHQYNNYPLTFGQGTKVEIKR	s⁻¹	0.000561
HC5 LC2 humanized Fab (Fab, V domains shown, also called VH5:VL2) VH: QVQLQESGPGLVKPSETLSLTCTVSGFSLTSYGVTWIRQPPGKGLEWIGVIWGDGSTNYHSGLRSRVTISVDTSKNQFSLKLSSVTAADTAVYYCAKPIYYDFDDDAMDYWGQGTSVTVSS VL: DIQMTQSPSSLSASVGDRVTITCKASQNVGTYVAWFQQRPGKAPKSLIYSASYRCSGVPSKFSGSGSGTDFTLTINSLQPEDFATYYCHQYNNYPLTFGQGTKVEIKR	s⁻¹	0.00024
HC0 LC0 chimeric Fab fragment (Fab, V domains shown, Murine variable domains with human Ig constant domains, expressed in CHO; also called HC0 LCD; chimeric control antibody) VH: QVQLKESGPGLVQPSQSLSITCTVSGFSLTSYGVTWVRQPPGKGLEWLGVIWGDGSTNYHSGLRSRLSISRDDSKSQVFLKLNSLQTDDTATYYCAKPIYYDFDDDAMDYWGQGTSVTVSS VL: DIVMTQSQKFMSTSVGDRVSVTCKASQNVGTYVAWFQQKPGQSPKTLIYSASYRCSGVPDRFTGSGSGTDFTLTISNVQSDDLAEYFCHQYNNYPLTFGAGTKLELRR	s⁻¹	0.000212
HC4 LC3 humanized Fab (Fab, V domains shown, also called VH4:VL3) VH: QVQLVESGGGVVQPGRSLRLSCAASGFSLTSYGVTWVRQSPGKGLEWVAVIWGDGSTNYHSGLRSRLTISRDNSKNTLYLEMNSLRTEDTATYYCAKPIYYDFDDDAMDYWGQGTKVTVSS VL: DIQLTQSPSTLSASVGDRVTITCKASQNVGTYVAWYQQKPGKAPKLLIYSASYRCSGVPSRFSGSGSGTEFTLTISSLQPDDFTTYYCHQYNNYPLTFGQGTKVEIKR	s⁻¹	0.000655
HC2 LC3 humanized Fab (Fab, V domains shown, also called VH2:VL3) VH: EVQLVESGPGLVKPSETLSLTCTVSGFSLTSYGVTWIRQPPGKGLEWIGVIWGDGSTNYHSGLRSRVTISVDTSKNQFSLKLSSVTAADTAVYYCAKPIYYDFDDDAMDYWGQGTLVTVSS VL: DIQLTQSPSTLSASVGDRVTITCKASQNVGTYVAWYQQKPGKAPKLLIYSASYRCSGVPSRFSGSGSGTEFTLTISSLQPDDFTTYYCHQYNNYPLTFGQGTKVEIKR	s⁻¹	0.000144
HC4 LC2 humanized Fab (Fab, V domains shown, also called VH4:VL2) VH: QVQLVESGGGVVQPGRSLRLSCAASGFSLTSYGVTWVRQSPGKGLEWVAVIWGDGSTNYHSGLRSRLTISRDNSKNTLYLEMNSLRTEDTATYYCAKPIYYDFDDDAMDYWGQGTKVTVSS VL: DIQMTQSPSSLSASVGDRVTITCKASQNVGTYVAWFQQRPGKAPKSLIYSASYRCSGVPSKFSGSGSGTDFTLTINSLQPEDFATYYCHQYNNYPLTFGQGTKVEIKR	s⁻¹	0.000508
HC2 LC4 humanized Fab (Fab, V domains shown, also called VH2:VL4) VH: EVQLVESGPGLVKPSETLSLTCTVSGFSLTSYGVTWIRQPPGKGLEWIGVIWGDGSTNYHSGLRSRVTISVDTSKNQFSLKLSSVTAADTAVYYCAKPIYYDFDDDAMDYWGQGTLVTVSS VL: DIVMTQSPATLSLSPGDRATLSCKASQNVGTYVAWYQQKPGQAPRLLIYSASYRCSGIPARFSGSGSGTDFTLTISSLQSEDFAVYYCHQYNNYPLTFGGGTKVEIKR	s⁻¹	0.0011
HC4 LC4 humanized Fab (Fab, V domains shown, also called VH4:VL4) VH: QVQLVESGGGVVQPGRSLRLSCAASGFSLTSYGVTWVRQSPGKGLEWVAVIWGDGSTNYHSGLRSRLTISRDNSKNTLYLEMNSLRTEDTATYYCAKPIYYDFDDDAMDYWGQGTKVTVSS VL: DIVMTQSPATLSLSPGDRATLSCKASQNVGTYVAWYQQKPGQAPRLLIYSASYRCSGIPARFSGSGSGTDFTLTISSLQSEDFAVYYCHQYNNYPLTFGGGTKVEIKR	s⁻¹	0.000412
